Protocol: clinical
Test Settings: human, in vivo, 50 mg
Measurement Name: Tmax (h)
Just the number please, in h, no unit attached.

Q. Please give the measured Tmax for this compound: COc1ccc(CN2CCNCC2)c(OC)c1OC
A. 8

meta.source: patent US20250235447A1
